# systemName: canine IL-31 (Canine_IL31) (canine)
# Sequence (chain, as listed by the source limits assumed, form in doubt): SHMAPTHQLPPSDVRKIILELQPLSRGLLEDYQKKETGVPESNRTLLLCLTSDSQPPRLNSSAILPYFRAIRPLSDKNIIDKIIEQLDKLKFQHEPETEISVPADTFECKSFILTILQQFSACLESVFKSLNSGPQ
# testName: SPR (Biacore), immobilised IL-31, 1:1 fit
valueKind: koff (s⁻¹)
Supply the numeric figure in s⁻¹, leaving out any unit text.

Example cases with answers are listed next.
Feline 15H05 1.2 (antibody, V domains shown) VH: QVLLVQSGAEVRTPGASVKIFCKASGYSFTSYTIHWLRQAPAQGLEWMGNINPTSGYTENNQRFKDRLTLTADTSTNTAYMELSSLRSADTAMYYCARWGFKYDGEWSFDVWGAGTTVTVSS VL: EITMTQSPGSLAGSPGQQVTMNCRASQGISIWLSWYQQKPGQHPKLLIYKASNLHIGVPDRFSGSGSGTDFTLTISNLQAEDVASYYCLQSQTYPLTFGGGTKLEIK: 0.000115
Feline 15H05 1.1 FW1 (antibody, V domains shown) VH: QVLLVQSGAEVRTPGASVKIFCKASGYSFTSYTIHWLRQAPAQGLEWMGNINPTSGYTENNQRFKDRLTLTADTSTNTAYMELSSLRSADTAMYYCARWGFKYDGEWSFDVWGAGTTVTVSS VL: DIQMNQSPSSLSASLGDTITVTCRASQGISIWLSWYQQKPGKVPKLLIYKASNLHIGVPSRFSGSGSGTDFTLTISSLEPEDAATYYCLQSQTYPLTFGGGTKLEIK: 0.0156
Feline 15H05 1.1 FW1_3 (antibody, V domains shown) VH: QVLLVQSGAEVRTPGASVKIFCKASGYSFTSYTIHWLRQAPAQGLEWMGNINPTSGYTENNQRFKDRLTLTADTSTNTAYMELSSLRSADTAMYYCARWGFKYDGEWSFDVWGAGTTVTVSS VL: DIQMNQSPSSLSASLGDTITVTCRASQGISIWLSWYQQKPGKVPKLLIYKASNLHIGVPPRFSGSGSGTHFTLTITSLQPEDIATYYCLQSQTYPLTFGGGTKLEIK: 2.88e-08
Feline 15H05 1.1_FW1_2 (antibody, V domains shown) VH: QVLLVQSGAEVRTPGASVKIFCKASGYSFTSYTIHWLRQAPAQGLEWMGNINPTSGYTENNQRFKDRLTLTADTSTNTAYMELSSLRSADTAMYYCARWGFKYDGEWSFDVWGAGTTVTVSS VL: DIQMNQSPSSLSASLGDTITVTCRASQGISIWLSWYQQKPGNIPKVLINKASNLHIGVPSRFSGSGSGTDFTLTISSLEPEDAATYYCLQSQTYPLTFGGGTKLEIK: 3.82e-06
Feline 15H05_VH1 mouse VL (antibody, V domains shown) VH: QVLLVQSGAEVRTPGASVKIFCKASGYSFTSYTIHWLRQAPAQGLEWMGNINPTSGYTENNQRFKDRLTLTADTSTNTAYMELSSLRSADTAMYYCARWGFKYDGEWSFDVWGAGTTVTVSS VL: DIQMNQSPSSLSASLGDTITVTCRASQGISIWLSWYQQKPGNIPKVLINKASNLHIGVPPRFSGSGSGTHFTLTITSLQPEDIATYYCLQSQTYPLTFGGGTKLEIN: 2.66e-07
Feline 15H05 2.1 (antibody, V domains shown) VH: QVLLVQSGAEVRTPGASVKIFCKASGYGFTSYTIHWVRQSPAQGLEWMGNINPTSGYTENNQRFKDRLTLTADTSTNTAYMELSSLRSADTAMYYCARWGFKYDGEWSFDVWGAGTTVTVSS VL: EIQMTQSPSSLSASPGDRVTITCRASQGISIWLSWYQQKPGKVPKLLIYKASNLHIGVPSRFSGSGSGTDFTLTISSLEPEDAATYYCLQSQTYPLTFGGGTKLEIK: 0.000866
mouse anti IL-31 antibody 15H05 (antibody, V domains shown) VH: QVQLQQSAAELARPGASVKMSCKTSGYTFTSYTIHWIKQRPGQGLEWIGNINPTSGYTENNQRFKDKTTLTVDRSSNTAYLQLHSLTSEDSAVYFCARWGFKYDGEWSFDVWGAGTTVTVSS VL: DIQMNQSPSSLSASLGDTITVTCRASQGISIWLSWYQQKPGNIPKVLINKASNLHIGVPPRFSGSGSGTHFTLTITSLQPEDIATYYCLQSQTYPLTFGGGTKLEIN: 6.56e-07
Feline 15H05 1.3 (antibody, V domains shown) VH: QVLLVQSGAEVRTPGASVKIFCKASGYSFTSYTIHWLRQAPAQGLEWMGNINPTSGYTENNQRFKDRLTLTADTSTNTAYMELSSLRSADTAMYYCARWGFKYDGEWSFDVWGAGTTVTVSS VL: EVVLTQSSAFLSRTLKEKATITCRASQGISIWLSWYQQKPNQAPKLLVKKASNLHIGAPSRFSGSGSGTDFTLTISSPEPEDAATYYCLQSQTYPLTFGGGTKLGDQ: 0.00019

Lab book: koff of Feline 15H05 1.1 FW3 (antibody, V domains shown) VH: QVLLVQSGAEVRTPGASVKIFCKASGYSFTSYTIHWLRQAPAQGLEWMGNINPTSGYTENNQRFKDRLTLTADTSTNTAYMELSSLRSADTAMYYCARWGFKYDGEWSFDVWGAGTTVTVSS VL: EIQMTQSPSSLSASPGDRVTITCRASQGISIWLSWYQQKPGKVPKLLIYKASNLHIGVPPRFSGSGSGTHFTLTITSLQPEDIATYYCLQSQTYPLTFGGGTKLEIK noted as 3.91e-07

Lab book: koff of Feline 15H05 1.1 FW2_3 (antibody, V domains shown) VH: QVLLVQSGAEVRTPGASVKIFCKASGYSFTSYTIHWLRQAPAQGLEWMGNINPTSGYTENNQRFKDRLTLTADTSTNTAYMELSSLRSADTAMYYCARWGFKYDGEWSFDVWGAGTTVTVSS VL: EIQMTQSPSSLSASPGDRVTITCRASQGISIWLSWYQQKPGNIPKVLINKASNLHIGVPPRFSGSGSGTHFTLTITSLQPEDIATYYCLQSQTYPLTFGGGTKLEIK noted as 0.00193
